Data credit: patent US20240109974A1

Overview of reported pKd across a group of binders:
Target: T1, Human TNFR2-His (Sino 10417-H08H) (human, UniProt P20333 23-257)
T1 construct: Bought protein; also called recombinant human TNFR2 protein; not shown: His tag
T1 sequence (looked up): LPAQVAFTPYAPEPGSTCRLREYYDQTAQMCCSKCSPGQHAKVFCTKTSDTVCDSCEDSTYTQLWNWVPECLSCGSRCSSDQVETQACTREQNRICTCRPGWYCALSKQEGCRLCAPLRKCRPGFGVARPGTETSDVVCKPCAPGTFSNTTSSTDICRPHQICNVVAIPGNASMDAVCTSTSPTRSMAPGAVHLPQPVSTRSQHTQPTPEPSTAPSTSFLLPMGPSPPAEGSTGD
Assay: SPR (Biacore T200), antibody captured on Protein A chip
Remember the convention: pKd equals -log10 of concentration in molar.

Worked examples follow.
Binder	Outcome Measure	Number
224-Hu4 (antibody, V domains shown, Humanized form of #224; also called VH9 + VL6) VH: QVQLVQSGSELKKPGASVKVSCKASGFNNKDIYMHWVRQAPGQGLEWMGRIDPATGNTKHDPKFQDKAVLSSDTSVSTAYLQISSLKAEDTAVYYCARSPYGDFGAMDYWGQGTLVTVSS VL: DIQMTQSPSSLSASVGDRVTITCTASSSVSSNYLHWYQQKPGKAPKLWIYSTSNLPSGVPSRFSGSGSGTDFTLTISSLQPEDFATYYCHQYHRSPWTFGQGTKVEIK	pKd	8.25
001-Hu4 (antibody, V domains shown, Humanized form of #001; also called VH2 + VL4) VH: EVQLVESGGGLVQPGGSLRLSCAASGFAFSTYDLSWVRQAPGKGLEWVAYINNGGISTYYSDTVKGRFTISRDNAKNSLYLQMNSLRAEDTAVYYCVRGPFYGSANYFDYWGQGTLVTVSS VL: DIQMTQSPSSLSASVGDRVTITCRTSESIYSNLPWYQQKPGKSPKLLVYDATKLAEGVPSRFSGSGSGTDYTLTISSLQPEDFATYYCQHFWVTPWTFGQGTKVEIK	pKd	9.38

Please look at the following binder next.
Field pKd (entry 224-WT (antibody, V domains shown, Human-murine chimeric wild-type molecule; also called human-murine chimeric antibody WT of #224) VH: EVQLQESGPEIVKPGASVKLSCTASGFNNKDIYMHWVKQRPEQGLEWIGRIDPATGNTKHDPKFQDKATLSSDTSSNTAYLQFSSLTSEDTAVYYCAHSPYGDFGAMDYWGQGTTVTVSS VL: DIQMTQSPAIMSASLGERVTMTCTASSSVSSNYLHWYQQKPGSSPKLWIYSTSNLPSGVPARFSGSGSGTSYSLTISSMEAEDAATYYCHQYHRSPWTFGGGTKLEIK ) reads 8.63
